- tested_target: T1, human S100A8/A9 heterodimeric antigen, His-tagged (hS100A8/A9-His) (human, UniProt P05109 1-93; P06702 1-114)
- T1 sequence 1: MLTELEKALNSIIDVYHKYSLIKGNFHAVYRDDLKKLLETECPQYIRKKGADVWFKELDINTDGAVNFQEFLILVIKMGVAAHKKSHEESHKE
- T1 sequence 2: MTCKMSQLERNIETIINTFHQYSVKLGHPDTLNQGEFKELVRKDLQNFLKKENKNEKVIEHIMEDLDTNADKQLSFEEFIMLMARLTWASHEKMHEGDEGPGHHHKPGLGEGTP
- procedure_text: cell-based or functional assay
value_type: Relative IC50 (IC50 relative to CM-1), IL-6 release from hS100A8/A9-activated human PBMCs

Take each entry in turn and give its Relative IC50 (IC50 relative to CM-1), IL-6 release from hS100A8/A9-activated human PBMCs.
1. CM-104 (antibody, human IgG4 S228P, lambda, V domains shown) VH: EVQLVESGGGLVQPGGSLRLSCAASGFTFSDYAMSWVRQAPGKGLEWVSAISGSGGSHYYAASVKGRFTISRDNSKNTLYLQMNSLRAEDTAVYYCARKYRPSRVFDAWGQGTLVTVSS VL: SYELTQPPSVSVAPGQTARITCSGDALGDKYASWYQQKPGQAPVLVIYEDAKRPSGIPERFSGSNSGNTATLTISGTQAEDEADYYCQSNDADAYWVFGGGTKLTVLG
2. CM-96 (antibody, human IgG4 S228P, lambda, V domains shown) VH: EVQLVESGGGLVQPGGSLRLSCAASGFTFSDYAMSWVRQAPGKGLEWVSAISGSGGSTYYAASVKGRFTISRDNSKNTLYLQMNSLRAEDTAVYYCARKYRPSRVFDAWGQGTLVTVSS VL: SYELTQPPSVSVAPGQTARITCSGDALGDKYMSWYQQKPGQAPVLVIYEDAKRPSGIPERFSGSNSGNTATLTISGTQAEDEADYYCQSNDADAWWVFGGGTKLTVLG
3. CM-103 (antibody, human IgG4 S228P, lambda, V domains shown) VH: EVQLVESGGGLVQPGGSLRLSCAASGFTFSDYAMSWVRQAPGKGLEWVSAISGSGGSHYYAASVKGRFTISRDNSKNTLYLQMNSLRAEDTAVYYCARKYRPSRVFDAWGQGTLVTVSS VL: SYELTQPPSVSVAPGQTARITCSGDALGDKYASWYQQKPGQAPVLVIYEDAKRPSGIPERFSGSNSGNTATLTISGTQAEDEADYYCQSNDADARWVFGGGTKLTVLG

1.76 relative to CM-1
1.47 relative to CM-1
0.687 relative to CM-1
